Biological target: T1, full-length beta-Catenin (Uniprot ID P35222) (Homo sapiens (Human), UniProt P35222 1-781)
T1 construct: also called bCat; B-Catenin
T1 sequence: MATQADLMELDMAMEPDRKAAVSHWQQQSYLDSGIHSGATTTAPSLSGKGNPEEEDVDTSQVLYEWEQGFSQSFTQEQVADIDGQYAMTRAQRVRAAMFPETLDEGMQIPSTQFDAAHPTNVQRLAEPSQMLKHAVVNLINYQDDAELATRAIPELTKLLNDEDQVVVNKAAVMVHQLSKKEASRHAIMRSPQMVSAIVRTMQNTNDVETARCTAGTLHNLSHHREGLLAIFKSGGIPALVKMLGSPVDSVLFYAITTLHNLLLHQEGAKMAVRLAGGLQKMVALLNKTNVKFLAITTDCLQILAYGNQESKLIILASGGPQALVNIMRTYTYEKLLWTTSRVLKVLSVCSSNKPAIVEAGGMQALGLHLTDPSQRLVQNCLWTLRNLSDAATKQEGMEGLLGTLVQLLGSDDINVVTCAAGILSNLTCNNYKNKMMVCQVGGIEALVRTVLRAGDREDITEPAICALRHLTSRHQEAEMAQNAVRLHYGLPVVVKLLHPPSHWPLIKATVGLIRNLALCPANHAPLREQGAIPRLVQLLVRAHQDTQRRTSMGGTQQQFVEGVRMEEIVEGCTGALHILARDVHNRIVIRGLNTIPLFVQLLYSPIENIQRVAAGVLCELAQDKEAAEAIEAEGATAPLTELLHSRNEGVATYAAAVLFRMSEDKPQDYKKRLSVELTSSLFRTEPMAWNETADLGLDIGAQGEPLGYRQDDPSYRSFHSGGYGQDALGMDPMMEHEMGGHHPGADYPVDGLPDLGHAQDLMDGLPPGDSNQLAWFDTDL
Assay: fluorescence polarization competition; 10 nM full-length beta-catenin, competitor 10 nM 5FAM-TCF4(10-53)
Starred links: 1 amine or outer side, 2 acyl side, 3 side chain; linkers in the order of their positions; H or OH if unused. Positions of bridges follow the written chain, without caps; N, C: chain ends. Non-standard residues stand in square brackets, D forms with d. Primed or numbered codes have the meaning given here. B5(4) = 2,2-bis(4-pentenyl)glycine = 2-amino-2-(pent-4-en-1-yl)hept-6-enoic acid (stitching residue), C=CCCCC(CCCC=C)(N[*:1])C(=O)[*:2]; B5(9) = 2-amino-2-(pent-4-en-1-yl)hept-6-enoic acid (2,2-bis(4-pentenyl)glycine), C=CCCCC(CCCC=C)(N[*:1])C(=O)[*:2]; B5(19) = 2-amino-2-(pent-4-en-1-yl)hept-6-enoic acid (bis(4-pentenyl)glycine), C=CCCCC(CCCC=C)(N[*:1])C(=O)[*:2]; Phe(3-CF3) = N[C@@H](Cc1cccc(C(F)(F)F)c1)C(=O)O; Bta = N[C@@H](Cc1csc2ccccc12)C(=O)O; αAllylPro = C=CC[C@@]1(C(=O)O)CCCN1; S8 = C=CCCCCCC[C@](C)(N)C(=O)O
Each entry below carries its reported pEC50.
# pEC50 = -log10(concentration in molar units)

Exercise: Requested read-out: pEC50. Entry: Ac-[αAllylPro]DA[B5(9)]DDAA[Phe(3-CF3)]Q[S8]F[Bta]Q-NH2 (staple 1-4, 4-11; not fully specified; printed as Ac-PL3-Asp-Ala-B5-Asp-Asp-Ala-Ala-3F3MeF-Gln-S8-Phe-BztA-Gln-NH2, Stapled peptide) [I-378]
Solution: 5.87

Exercise: Please answer likewise for XDAXDNAAFVXFXQ (not fully specified; Ac-PL3-Asp-Ala-B5-Asp-Asn-Ala-Ala-Phe-Val-S8-3FF-BztA-Gln-NH2: N-terminal acetyl, C-terminal amide; non-natural PL3(1), B5(4), S8(11), 3FF(12), BztA(13); staples PL3-B5 and B5-S8, Stapled peptide) [I-381]
Solution: 5.44

Exercise: Please answer likewise for Ac-[αAllylPro]DA[B5(19)]DDAAHA[S8]F[Bta]Q-NH2 (staple 1-4, 4-11; also: earlier eluting HPLC staple isomer, Stapled peptide) [I-363]
Solution: 5.30

Exercise: Please answer likewise for Ac-[αAllylPro]DA[B5(4)]DDAA[Phe(3-CF3)]A[S8]F[Bta]Q-NH2 (staple 1-4, 4-11; not fully specified; printed as Ac-PL3-Asp-Ala-B5-Asp-Asp-Ala-Ala-3F3MeF-Ala-S8-Phe-BztA-Gln-NH2, Stapled peptide) [I-376]
Solution: 5.88
